Taken from patent US4634706A.

target: cGMP PDE; test: Phosphodiesterase (PDE) inhibitory activity, cGMP substrate; conditions: cGMP as substrate, crude enzyme from rat brains; read-out: I50 cGMP PDE
Measurement Label: log10(IC50) (log10 of the value in µM)

COc1nc2c(N)ncnc2n1C1OC2=CC(C(=O)O)([C@@H](O)C(=O)O)OC2[C@H]1O (stereo partly drawn) | 0.51
Nc1ncnc2c1ncn2C1OC2=CC(C(=O)O)([C@@H](O)C(=O)O)OC2[C@@H]1Cl (stereo partly drawn) [Compound No. 142, 2'(S)-chloro-2'-deoxygriseolic acid] | 0.40
Cn1c(=O)c2[nH]cnc2n(C)c1=O [theophylline, reference compound] | 2.29
Nc1ncnc2c1nc(S)n2C1OC2=CC(C(=O)O)([C@@H](O)C(=O)O)OC2[C@H]1O (stereo partly drawn) | 1.70
Nc1ncnc2c1ncn2C1OC2=CC(C(=O)O)([C@@H](O)C(=O)O)OC2[C@@H]1I (stereo partly drawn) [Compound No. 249, 2'-deoxy-2'(S)-iodogriseolic acid] | 0.45
O=C(O)C(O)C1(C(=O)O)C=C2OC(n3c(Br)nc4c(=O)[nH]cnc43)C(O)C2O1 (stereo not drawn) | 1.12
CC(=O)O[C@@H]1C2OC(C(=O)O)([C@@H](OC(C)=O)C(=O)O)C=C2OC1n1cnc2c(N)ncnc21 (stereo partly drawn) | 2.39
CC(=O)O[C@H](C(=O)O)C1(C(=O)O)C=C2OC(n3cnc4c(N)ncnc43)[C@H](O)C2O1 (stereo partly drawn) [Compound No. 141, 7'(S)-acetoxy-7'-deoxygriseolic acid] | 0.02
Nc1ncnc2c1nc(Br)n2C1OC23OC(C(=O)O)C(C(=O)O)(OC2[C@H]1O)C3Br (stereo partly drawn) | 1.51
O=C(O)[C@H](O)C1(C(=O)O)C=C2OC(n3cnc4c(S)ncnc43)[C@H](O)C2O1 (stereo partly drawn) | 0.96
Nc1ncnc2c1ncn2C1OC2=CC(C(=O)O)([C@@H](O)C(=O)O)OC2[C@@H]1N (stereo partly drawn) [Compound No. 248, 2'(S)-amino-2'-deoxygriseolic acid] | 1.10
COc1ncnc2c1ncn2C1OC2=CC(C(=O)O)([C@@H](O)C(=O)O)OC2[C@H]1O (stereo partly drawn) | 0.69
